The values you see were collected from PubChem BioAssay AID720551.

Molecular target: Voltage-gated inwardly rectifying potassium channel KCNH2 (Homo sapiens)
Assay: qHTS for Inhibitors of KCHN2 3.1: Wildtype qHTS; also: % is scaled to controls: 0 for no effect and ±100 for the full control effect
Settings: U2OS, BacMam KCNH2, thallium flux FluxOr; at 1.84 µM; stronger effect = lower value
In all, about 340,000 compounds went through this assay and about 1,300 (0.38%) were called active. This is one part of a sample in which actives are shown more often than they occur.
I'd be grateful if you could share measured activity change for these entries.
Answers are plain numbers, in %.

Sample answers from the record:
molecule | unit_label | activity change
Cc1cccc(C(=O)C(O)(c2ccccc2)C2CCCCC2=O)c1 (stereo not given) | % | 8.63
Cc1ccccc1C#CC1=CC(=O)CC(C)(C)C1 | % | 11
CC(C)NC(=O)Nc1ccc2c(c1)C(=O)N([C@H](C)CO)C[C@H](C)[C@@H](CN(C)Cc1ccc(C(F)(F)F)cc1)OCCCC[C@@H](C)O2 | % | -10.8
C[C@@H]1CN([C@@H](C)CO)C(=O)CCCn2nncc2CO[C@H]1CN(C)C(=O)Nc1ccc(C(F)(F)F)cc1 | % | -21.9
O=C1[C@H]2[C@@H](c3ccc(C(F)(F)F)cc3)N[C@]3(CCCN(Cc4ccc(Cl)cc4)C3=O)[C@H]2C(=O)N1Cc1ccccc1 | % | -9.13
OC(COc1ccc(CN2CCSCC2)cc1)CN1CCCCC1 (stereo not given) | % | -2.59

// for each molecule below, give its activity change
1. CC1(C)NC(=O)N(CC(=O)Nc2ccc(-c3ccccc3)cc2)C1=O
2. CCN1CCN(CC(=O)Nc2sc3c(c2C#N)CCC3)CC1

-12.6
5.2

// for each molecule below, give its activity change
1. COc1ccc2c(Cl)c(C(=O)NCc3ccco3)sc2c1
2. COc1ccc(CCNC(=O)CCc2cn(C)c3ccccc23)c(OC)c1
3. CN(C)/C=C(/C(=O)c1ccccc1Cl)S(C)(=O)=O

-70.1
6.58
-134

// for each molecule below, give its activity change
1. COc1ccc(CCNC(=O)CN2C(=O)CCSc3ccccc32)c(OC)c1
2. Clc1ccc(COn2c(-c3ccc(Cl)cc3Cl)nc3ncccc32)cc1
3. CN(C)CCNC(=O)/C(=C/c1cccc([N+](=O)[O-])c1)NC(=O)c1ccccc1
4. O=C(OCc1ccccc1)N1CCC2CC1c1cc(N3CCN(S(=O)(=O)c4cc(Cl)cc(Cl)c4)CC3)ccc12 (stereo not given)

-169
1.98
-79.1
3.43

* * *

Molecular target: Voltage-gated inwardly rectifying potassium channel KCNH2 (Homo sapiens) (UniProt Q12809)
Sequence (Q12809 whole entry, looked up): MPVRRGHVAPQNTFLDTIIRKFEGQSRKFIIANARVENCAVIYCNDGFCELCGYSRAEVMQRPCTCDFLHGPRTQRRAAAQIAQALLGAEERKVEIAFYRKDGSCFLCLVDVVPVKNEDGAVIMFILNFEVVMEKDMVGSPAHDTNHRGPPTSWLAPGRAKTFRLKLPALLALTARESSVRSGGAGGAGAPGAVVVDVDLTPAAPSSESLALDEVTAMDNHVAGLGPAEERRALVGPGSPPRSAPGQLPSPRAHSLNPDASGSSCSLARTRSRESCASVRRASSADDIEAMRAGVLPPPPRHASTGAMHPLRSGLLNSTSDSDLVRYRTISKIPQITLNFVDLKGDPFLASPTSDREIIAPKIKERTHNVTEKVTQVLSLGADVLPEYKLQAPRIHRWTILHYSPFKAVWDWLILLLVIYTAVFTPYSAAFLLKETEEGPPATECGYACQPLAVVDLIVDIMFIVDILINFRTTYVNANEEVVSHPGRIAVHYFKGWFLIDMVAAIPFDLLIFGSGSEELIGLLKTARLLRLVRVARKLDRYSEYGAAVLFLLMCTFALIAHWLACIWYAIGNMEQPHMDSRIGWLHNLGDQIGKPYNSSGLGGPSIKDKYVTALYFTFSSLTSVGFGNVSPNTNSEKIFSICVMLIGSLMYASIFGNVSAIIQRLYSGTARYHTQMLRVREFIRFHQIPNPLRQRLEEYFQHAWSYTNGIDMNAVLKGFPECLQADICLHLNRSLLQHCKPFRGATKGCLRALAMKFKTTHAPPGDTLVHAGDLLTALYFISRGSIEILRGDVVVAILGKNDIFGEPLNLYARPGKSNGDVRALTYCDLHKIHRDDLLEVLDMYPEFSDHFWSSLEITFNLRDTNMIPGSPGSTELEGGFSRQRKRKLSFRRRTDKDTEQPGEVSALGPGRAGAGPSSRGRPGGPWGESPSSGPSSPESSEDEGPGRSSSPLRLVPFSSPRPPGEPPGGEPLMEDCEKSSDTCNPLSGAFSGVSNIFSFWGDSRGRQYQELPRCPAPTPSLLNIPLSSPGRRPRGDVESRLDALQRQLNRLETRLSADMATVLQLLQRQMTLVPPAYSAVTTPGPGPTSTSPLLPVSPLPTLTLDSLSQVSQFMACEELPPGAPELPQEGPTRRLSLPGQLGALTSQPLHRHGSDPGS
Test: qHTS for Inhibitors of KCHN2 3.1: Wildtype qHTS; also: % is scaled to controls: 0 for no effect and ±100 for the full control effect
Conditions: U2OS, BacMam KCNH2, thallium flux FluxOr; at 1.84 µM; stronger effect = lower value
In all, about 340,000 compounds went through this assay and about 1,300 (0.38%) were called active. What follows is part of a selection rich in actives, with near analogues and random picks from the rest.
I'd be grateful if you could share measured activity change for these entries.
Give bare numbers, in %.

Sample answers from the record:
compound | unit_label | obs_value
COc1cc(NC(=O)C2=C(C)OCCS2)c(Cl)cc1C(=O)NCCCN1CCCC(C)C1 (stereo not given) | % | 15
CC(Sc1nnc(CNC(=O)c2ccccc2F)n1C)C(=O)Nc1nccs1 (stereo not given) | % | -161
Cc1ccc(C(=O)C(C)OC(=O)Cc2n[nH]c(=O)c3ccccc23)cc1C (stereo not given) | % | 5.46

// for each compound below, give its activity change
1. COc1ccc(-n2nnnc2CNC(=O)c2ccc3ccccc3c2)cc1
2. Cc1ccc(-c2ccc(C3=CC(=O)CC(C)(C)C3=O)cc2)cc1
3. O=C(COc1ccc(Cl)cc1Cl)N/N=C/c1ccccn1
4. CN(C)/C=C(/C(=O)c1ccc(Cl)cc1)S(=O)(=O)c1ccccc1
5. O=C(NCc1nnnn1-c1ccc(Cl)cc1)c1ccc([N+](=O)[O-])o1
6. Cc1cc(OCC(=O)Nc2nccs2)c2c(C)c(C)c(=O)oc2c1
7. CC(C)CC(=O)NC(=S)Nc1cc(C(=O)O)ccc1Cl

1: -0.166; 2: -2.66; 3: -7.76; 4: 0.0109; 5: 7.93; 6: -4.04; 7: -19.3
